Test system: human promyelocytic leukemia cell HL-60
Assay: in vitro tumor cell proliferation inhibition assay (MTT), HL-60
Format: cell-based
Conditions: HL-60 cells, 72 h; read-out: 72-hour IC50

compound | IC50 (µM)
C=C(C)c1cc(O)c2c(c1O)C(=O)CC1C(C)(C)CCCC21C (stereo not shown) | 9.06

----------
Tested on: human lung cancer cell A549
Assay: in vitro tumor cell proliferation inhibition assay (MTT), A549
Type: cell-based
Settings: A-549 cells, 72 h; read-out: 72-hour IC50
assay endpoint: IC50 (µM)

compound | assay endpoint | unit tag | endpoint result
C=C(C)c1cc(O)c2c(c1O)C(=O)CC1C(C)(C)CCCC21C (stereo not shown) | IC50 | µM | 17.5

----------
Test system: human lung cancer cell A549
Experiment: in vitro tumor cell proliferation inhibition assay (MTT), A549
Assay type: cell-based
Conditions: A549, 72 h; mean ± spread of parallel tests; unit inferred; read-out: IC50 according to the above data (three parallel tests)
Description: […]
pIC50: −log10 of the molar value.

compound | target system | pIC50
N.N.[Cl][Pt][Cl] [Cisplatin, cisplatin, reference compound] | human lung cancer cell A549 | 4.80
C=C(C)c1cc(O)c2c(c1O)C(=O)CC1C(C)(C)CCCC21C (centres unmarked) | human lung cancer cell A549 | 4.76

Values compiled from patent US11981630B1.
